# System Tested: GABA-A receptor; anion channel
# Experimental Details: In vitro inhibition of [3H]P4S binding to Gamma-aminobutyric acid receptor of human astrocytes
pIC50: −log10 of the molar value.
// NO strictly below 5 in pIC50; YES otherwise

Task: Confirm if pIC50 reported for the molecule C[C@H](N)CCC(=O)O is 5 or above.
Output: NO

Task: Confirm if pIC50 reported for the molecule C[C@H](N)c1cc(O)no1 is 5 or above.
Output: YES

Task: Confirm if pIC50 reported for the molecule C[C@H](N)/C=C/C(=O)O is 5 or above.
Output: NO

Task: Confirm if pIC50 reported for the molecule C[C@@H](N)CCC(=O)O is 5 or above.
Output: NO

Task: Confirm if pIC50 reported for the molecule C[C@@H](N)/C=C/C(=O)O is 5 or above.
Output: NO

Task: Confirm if pIC50 reported for the molecule C[C@@H](N)c1cc(O)no1 is 5 or above.
Output: NO

---

Please respond with reported IC50 for every item in the list.
# System Tested: GABA-A receptor; anion channel
# Experimental Details: In vitro inhibition of [3H]isoguvacine binding to Gamma-aminobutyric acid receptor of human astrocytes
Just the number in µM, nothing appended.

Task: Give recorded IC50 with GABA-A receptor; anion channel for the following molecule: C[C@@H](N)c1cc(O)no1
Output: 8.2

Task: Give recorded IC50 with GABA-A receptor; anion channel for the following molecule: C[C@H](N)CCC(=O)O
Output: 5.2

Task: Give recorded IC50 with GABA-A receptor; anion channel for the following molecule: C[C@H](N)c1cc(O)no1
Output: 1.6

Task: Give recorded IC50 with GABA-A receptor; anion channel for the following molecule: C[C@@H](N)CCC(=O)O
Output: 6.1

Task: Give recorded IC50 with GABA-A receptor; anion channel for the following molecule: C[C@@H](N)/C=C/C(=O)O
Output: 84

Task: Give recorded IC50 with GABA-A receptor; anion channel for the following molecule: C[C@H](N)/C=C/C(=O)O
Output: 2.5

---

# System Tested: GABA-A receptor; anion channel
# Experimental Details: In vitro inhibition of [3H]GABA binding to Gamma-aminobutyric acid receptor of human astrocytes
Please respond with reported IC50 for every item in the list.
Just the number in µM, nothing appended.

Task: Need IC50, item C[C@@H](N)CCC(=O)O
Output: 5

Task: Need IC50, item C[C@@H](N)/C=C/C(=O)O
Output: 148

Task: Need IC50, item C[C@H](N)c1cc(O)no1
Output: 0.64

Task: Need IC50, item C[C@@H](N)c1cc(O)no1
Output: 19

Task: Need IC50, item C[C@H](N)CCC(=O)O
Output: 4.7

Task: Need IC50, item C[C@H](N)/C=C/C(=O)O
Output: 4.1

---

# System Tested: GABA-A receptor; anion channel
# Experimental Details: In vitro inhibition of [3H]muscimol binding to Gamma-aminobutyric acid receptor of human astrocytes
Readout Kind: IC50 (µM)
Just the number in µM, nothing appended.

Task: Need IC50, item C[C@@H](N)/C=C/C(=O)O
Output: 145

Task: Need IC50, item C[C@H](N)c1cc(O)no1
Output: 0.51

Task: Need IC50, item C[C@H](N)CCC(=O)O
Output: 2.5

Task: Need IC50, item C[C@@H](N)c1cc(O)no1
Output: 8.9

Task: Need IC50, item C[C@H](N)/C=C/C(=O)O
Output: 3.5

Task: Need IC50, item C[C@@H](N)CCC(=O)O
Output: 4.3

---

Please respond with reported log10(IC50) for every item in the list.
# System Tested: GABA-A receptor; anion channel
# Experimental Details: In vitro inhibition of [3H]-THIP binding to Gamma-aminobutyric acid receptor of human astrocytes
Lab note - IC50 converted to log10 from values in nM.

Task: Need log10(IC50), item C[C@@H](N)CCC(=O)O
Output: 3.40

Task: Need log10(IC50), item C[C@H](N)c1cc(O)no1
Output: 2.87

Task: Need log10(IC50), item C[C@@H](N)c1cc(O)no1
Output: 3.98

Task: Need log10(IC50), item C[C@H](N)/C=C/C(=O)O
Output: 3.41

Task: Need log10(IC50), item C[C@@H](N)/C=C/C(=O)O
Output: 4.94

Task: Need log10(IC50), item C[C@H](N)CCC(=O)O
Output: 3.46

---

# System Tested: GABA-A receptor; anion channel
# Experimental Details: Activation of binding of [3H]diazepam to Gamma-aminobutyric acid receptor
pEC50: −log10 of the molar value.
// label 0 strictly below 3 in pEC50; label 1 otherwise

Task: Confirm if pEC50 reported for the compound C[C@H](N)c1cc(O)no1 is 3 or above.
Output: label 1

Task: Confirm if pEC50 reported for the compound C[C@@H](N)CCC(=O)O is 3 or above.
Output: label 1

Task: Confirm if pEC50 reported for the compound C[C@H](N)CCC(=O)O is 3 or above.
Output: label 1

Task: Confirm if pEC50 reported for the compound C[C@@H](N)c1cc(O)no1 is 3 or above.
Output: label 0

Task: Confirm if pEC50 reported for the compound C[C@H](N)/C=C/C(=O)O is 3 or above.
Output: label 1

Task: Confirm if pEC50 reported for the compound C[C@@H](N)/C=C/C(=O)O is 3 or above.
Output: label 0
